# System: HCT-15 colon
# Protocol Description: NCI-60 one-dose screen, 48 h
# Cond: 10 µM unless noted
The panel holds about 83,000 compounds, 20% with a hit somewhere; the sample as a whole holds those more often. Calls of active or inactive are those of the source. How the source made its calls: active means growth percent below 10; inactive means the rest.
In this exercise, the only acceptable responses are true (1) (active), false (0) (inactive)

Test call for this compound, please: "COc1cccc(-c2nn(-c3ccccc3)cc2-c2ccnc(NCCNS(=O)(=O)c3cccc(F)c3)c2)c1"
false (0)

Test call for this compound, please: "Cc1cc(N2CCCCC2)nc(N(CCNc2ccnc3cc(Cl)ccc23)Cc2ccco2)n1"
false (0)

Test call for this compound, please: "CC(C)=CCC/C(C)=C/CC/C(C)=C/CC/C(C)=C/CSC[C@H](NC(=O)CCCCCN1CCN(C)CC1)C(=O)NC1CCCCC1"
false (0)

Test call for this compound, please: "NC1=NN(c2ccccc2)C(=O)/C1=C/c1ccc(Cl)cc1"
false (0)

Test call for this compound, please: "COc1cc2nc(Cl)nc(Nc3cccc(C(=O)/C=C/c4ccc(Cl)cc4)c3)c2cc1OC"
true (1)

Test call for this compound, please: "CCCCC[C@H]1CC=C2C(=O)C=C[C@@H]2CC=CCCCC(=O)O[C@@H](CCCCC)CC=C2C(=O)C=C[C@@H]2CC=CCCCC(=O)O[C@@H](CCCCC)CC=C2C(=O)C=C[C@@H]2CC=CCCCC(=O)O1"
true (1)

Test call for this compound, please: "O=C1CNCCN1"
false (0)

Test call for this compound, please: "COC(=O)[C@]12CC[C@@H](C)[C@H](C)[C@@H]1C1=CC[C@@H]3[C@@]4(C)CC(=O)[C@H](OC(=O)c5ccco5)[C@@]5(C)COC(=C45)C[C@@]3(C)[C@]1(C)CC2"
false (0)

###

# System: IGROV1 ovarian
# Protocol Description: NCI-60 one-dose screen, 48 h (100 = growth as untreated, 0 = no growth, -100 = all killed)
# Cond: 10 µM unless noted
About 83,000 compounds went through this panel and 20% of them were active in at least one assay; those are over-represented in the sample as a whole.
Rule: Criterion met for growth not less than 30%, Criterion not met for anything less.

Record "O=C(O)c1cccc2c1-c1ccc(Cl)cc1C2" ; criterion: growth no lower than 30%. Met?
Criterion met

Record "Cn1cc(-c2nc(-c3cn(C)c4ncccc34)cs2)c2cc(F)ccc21" ; criterion: growth no lower than 30%. Met?
Criterion met

Record N#CC1=C(N)Oc2ccc3ccccc3c2C1c1ccccc1Cl (stereo not given) ; criterion: growth no lower than 30%. Met?
Criterion met

Record "Cc1cc(N2CCCCC2)nc(N(CCCNc2ccnc3cc(Cl)ccc23)Cc2ccco2)n1" ; criterion: growth no lower than 30%. Met?
Criterion not met

Record "O=[N+]([O-])c1ccc(N/N=C(\C(=N/Nc2ccc([N+](=O)[O-])cc2[N+](=O)[O-])c2ccccc2)c2ccccc2)c([N+](=O)[O-])c1" ; criterion: growth no lower than 30%. Met?
Criterion met

###

# Test system: A549/ATCC NSCLC
# Protocol Description: NCI-60 one-dose screen, 48 h (100 = growth as untreated, 0 = no growth, -100 = all killed)
# Cond: 10 µM unless noted
About 83,000 compounds went through this panel and 20% of them were active in at least one assay; those are over-represented in the sample as a whole.
Each record's growth is compared with bottom end: < 60%; midrange: ≥ 60% and < 90%; top end: ≥ 90% to give its class.

Please let me know in which category the item "COc1cc(/C=C/c2cc(/C=C/c3ccc(O)c(OC)c3)n(-c3ccc(Cl)cc3)c(=O)n2)ccc1O" belongs.
top end

Please let me know in which category the item O=C1CCN2C(=O)Nc3ccccc3C2C1 (configuration not stated) belongs.
top end

Please let me know in which category the item "COc1ccc(-c2cc(=O)oc3ccc(Cl)cc23)cc1F" belongs.
bottom end

Please let me know in which category the item "C=C(C)[C@@H]1CC[C@]2(C(=O)N3CCN(CC)CC3)CC[C@]3(C)[C@H](CC[C@@H]4[C@@](C)(CCC(=O)N5CCN(CC)CC5)[C@H](C(=C)C)CC[C@]43C)[C@@H]12" belongs.
bottom end

Please let me know in which category the item "C=C1CC[C@@H](C(=O)OC)Cc2nc(C)ccc21" belongs.
top end

Please let me know in which category the item "Cn1cc(-c2csc(-c3cn(CCCN4CCCCC4)c4ccccc34)n2)c2cccnc21" belongs.
bottom end

Please let me know in which category the item "Clc1ccc(Cn2cc(-c3nc4ccc(Br)nc4n3Cc3ccc(Cl)cc3)c3cccnc32)cc1" belongs.
top end

Please let me know in which category the item "CC(=O)OC[C@]12CC[C@@H](/C(C)=N/O)[C@@H]1[C@H]1CC[C@@H]3[C@@]4(C)CCCNC(C)(C)[C@@H]4CC[C@@]3(C)[C@]1(C)CC2" belongs.
midrange

Please let me know in which category the item "COc1ccccc1-n1cnc(N)c1C(=O)c1cc(OC)c(OC)c(OC)c1" belongs.
bottom end

Please let me know in which category the item "COc1ccc2c(c1)C/C(=C\c1cc(-c3ccc4c(c3)OCO4)n[nH]1)C2=O" belongs.
top end

Please let me know in which category the item "COc1ccc2c(c1)c(-c1nc(-c3c[nH]c4ncccc34)cs1)cn2CCNC(=O)OC(C)(C)C" belongs.
midrange

Please let me know in which category the item "COc1ccc2c(c1)c(-c1nc(-c3c[nH]c4ncccc34)cs1)cn2CCCN1CCCCC1" belongs.
bottom end

Please let me know in which category the item "CC(=O)c1c(C)[nH]c(-c2nc3ccc(N4CCN(C)CC4)cc3[nH]2)c1-c1ccc2c(c1)OCCO2" belongs.
bottom end

Please let me know in which category the item "COc1cccc(-c2nn(-c3ccccc3)cc2-c2ccnc(NCCCNS(=O)(=O)c3cccc(F)c3)c2)c1" belongs.
bottom end

Please let me know in which category the item "O=C1/C(=C\c2ccco2)SC(=S)N1CCc1ccc(O)cc1" belongs.
top end

Please let me know in which category the item "CCOC(=O)N1CCN(CCCCOc2ccc(C(C)(C)CC)cc2)CC1" belongs.
top end

Please let me know in which category the item "CC(C)=CCC[C@](C)(O)[C@H]1CC[C@]2(C)[C@@H]1CC[C@@H]1[C@@]3(C)C/C(=C/c4ccc(Br)cc4)C(=O)C(C)(C)[C@@H]3CC[C@]12C" belongs.
midrange

Please let me know in which category the item "Cc1cc(N=O)cc(C(C)(C)C)c1O" belongs.
midrange

Please let me know in which category the item "CCN1CCN(C(=O)[C@]23CCC(C)(C)C[C@H]2C2=CC[C@@H]4[C@@]5(C)CC/C(=N/O)C(C)(C)[C@@H]5CC[C@@]4(C)[C@]2(C)CC3)CC1" belongs.
midrange

Please let me know in which category the item "Oc1ccccc1/C=N\NC(=S)Nc1ccc(F)cc1" belongs.
bottom end

Please let me know in which category the item O=C(c1ccccc1)C(CN1CCOCC1)c1ccccc1 (configuration not stated) belongs.
top end

Please let me know in which category the item "COc1cccc(-c2nn(-c3ccccc3)cc2-c2ccnc(NCCCNS(=O)(=O)c3ccccc3)c2)c1" belongs.
bottom end

Please let me know in which category the item "Cc1cc2nc3c4cc([N+](=O)[O-])cc([N+](=O)[O-])c4n(CCN(C)C)c3nc2cc1C" belongs.
midrange

Please let me know in which category the item "COc1ccc(-c2nc(SCC(=O)Nc3ccc(C(C)=O)cc3)[nH]c(=O)c2C#N)cc1" belongs.
midrange

Please let me know in which category the item "Cc1ccnc2c(OCc3ccccc3)cccc12" belongs.
top end

Please let me know in which category the item "NC1=NN(c2ccccc2)C(=O)/C1=C/c1ccc(Cl)cc1" belongs.
top end

Please let me know in which category the item "C=C1C(=O)O[C@H]2[C@H]1CC/C(Cn1cc(-c3ccc(OC)cc3)nn1)=C\CC[C@@]1(C)O[C@@H]21" belongs.
bottom end

Please let me know in which category the item "CCN1CCN(C(=O)[C@@]2(C)CC[C@]3(C)CC[C@]4(C)C(=CC(=O)[C@@H]5[C@@]6(C)CC[C@H](OCCC#N)C(C)(C)[C@@H]6CC[C@]54C)[C@@H]3C2)CC1" belongs.
midrange

Please let me know in which category the item "OCCNc1nc(Nc2ccc(Cl)c(Cl)c2)nc2ccccc12" belongs.
bottom end

Please let me know in which category the item "Cc1cc(Cl)nc(N(CCCNc2ccnc3cc(Cl)ccc23)Cc2ccco2)n1" belongs.
bottom end

Please let me know in which category the item "Cc1ccc(Sc2sc(-c3ccccc3)nc2[P+](c2ccccc2)(c2ccccc2)c2ccccc2)cc1" belongs.
bottom end
